- Test system: 636577-100-R-J1-PDC complex spheroid viability;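 also: luminescence signal used as a proxy for viable cells; viability read after seven days of drug exposure; 100% = DMSO vehicle control wells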
- testSummary: Anticancer human tumor 636577-100-R-J1-PDC patient-derived endometrial adenocarcinoma cell line growth inhibition [GQUAD]
- measurementContext: second compound 3.16 µM; first compound 0.1 µM; active compounds read low
The following molecules are shown together with reported viability, T/C values.
experimentalEndpoint: viability, T/C

>  <molecule>
Cc1cccc(N(C)C(=O)C2C(O)CCN2c2nc(C)cc(C(F)(F)F)c2C#N)c1 (stereo not drawn) + Cc1cnc(CNC(=O)c2c(=O)c3ccc(N4CCCN(C)CC4)nc3n3c2sc2ccccc23)cn1

>  <measured>
19.6%

$$$$
>  <molecule>
CCCS(=O)(=O)Nc1ccc(F)c(C(=O)c2c[nH]c3ncc(-c4ccc(Cl)cc4)cc23)c1F + CN(C)c1ccc(Nc2c3ccc(NC(=O)CCN4CCCC4)cc3nc3cc(NC(=O)CCN4CCCC4)ccc23)cc1

>  <measured>
47.9%

$$$$
>  <molecule>
CCCS(=O)(=O)Nc1ccc(F)c(C(=O)c2c[nH]c3ncc(-c4ccc(Cl)cc4)cc23)c1F + Cc1[nH]c2ccc(F)cc2c1-c1nc2c3cccnc3c3ncccc3c2[nH]1

>  <measured>
25.4%

$$$$

Data credit: PubChem BioAssay AID2060504
